FYI, the data here is from ChEMBL document CHEMBL1151601.

- System: Staphylococcus aureus
- EXPERIMENT: Tested for minimum inhibitory concentration against Staphylococcus aureus ATCC 25293
- Type: functional
Please go through the items and note down their MIC.

Give a short answer stating reported MIC for CC1(C)S[C@@H]2[C@H](NC(=O)[C@H](CCCCN)c3ccccc3)C(=O)N2[C@H]1C(=O)O .
> 100 µg/mL

Give a short answer stating reported MIC for CC(=O)NCCCC[C@@H](C(=O)N[C@@H]1C(=O)N2[C@@H]1SC(C)(C)[C@@H]2C(=O)O)c1ccccc1 .
> 20 µg/mL

Give a short answer stating reported MIC for CC1(C)S[C@@H]2[C@H](NC(=O)Cc3ccccc3)C(=O)N2[C@H]1C(=O)O .
< 0.05 µg/mL

Give a short answer stating reported MIC for CC1(C)SC2C(NC(=O)Cc3ccccc3)C(=O)N2[C@H]1C(=O)O (some centres undefined) .
> 20 µg/mL
